Task for the reader: assign each of the following compounds its reported pKi.
# measurementTarget: isolated recombinant JAK2 kinase domain (Homo sapiens (Human))
# assayExplanation: JAK2 enzyme assay (Caliper LabChip, Ki)
# Format: biochemical
// pKi: -log10(molar conc.)

Lab book: pKi of COc1ccc(CN2CCC(CC#N)(n3cc(C(N)=O)c(NC(=O)C4CC4)n3)CC2)cc1 noted as 6.77

Lab book: pKi of N#CC[C@@]1(n2cc(C(N)=O)c(NC(=O)C3CC3)n2)CCN(Cc2ccc(-c3ccccc3)cc2)C[C@@H]1F (single isomer, unassigned) noted as 8.66

Lab book: pKi of Cn1ccc(-c2ccc(CN3CCC(CC#N)(n4cc(C(N)=O)c(NC(=O)C5CC5)n4)CC3)cc2)n1 noted as 7.84

Lab book: pKi of C#Cc1ccc(CN2CCC(CC#N)(n3cc(C(N)=O)c(NC(=O)C4CC4)n3)C(F)C2)cc1 (stereo not shown) noted as 9.46

Lab book: pKi of COc1cccc(CN2CCC(CC#N)(n3cc(C(N)=O)c(NC(=O)C4CC4)n3)CC2)c1 noted as 7.02

Lab book: pKi of N#CCC1(n2cc(C(N)=O)c(NC(=O)[C@H]3C[C@H]3F)n2)CCN(CC(F)(F)F)CC1 noted as 7.92

----------
Task for the reader: assign each of the following molecules its reported pKi.
# measurementTarget: isolated recombinant JAK2 kinase domain (Homo sapiens (Human), UniProt O60674)
# Sequence (O60674 849-1124): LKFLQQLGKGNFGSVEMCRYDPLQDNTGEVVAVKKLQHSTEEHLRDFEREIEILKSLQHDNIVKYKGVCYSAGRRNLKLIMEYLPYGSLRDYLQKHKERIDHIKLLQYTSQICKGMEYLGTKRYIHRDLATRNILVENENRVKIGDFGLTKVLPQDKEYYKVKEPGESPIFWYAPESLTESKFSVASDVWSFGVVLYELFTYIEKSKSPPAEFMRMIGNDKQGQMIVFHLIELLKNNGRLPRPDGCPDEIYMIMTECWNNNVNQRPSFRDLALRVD
# assayExplanation: JAK2 enzyme assay (Caliper LabChip, Ki)
// pKi: -log10(molar conc.)

Lab book: pKi of N#CCC1(n2cc(C(N)=O)c(NC(=O)C3CC3)n2)CCN(Cc2ccc(-c3ccccc3)nc2)CC1F (stereo not shown) noted as 9.59

Lab book: pKi of N#CCC1(n2cc(C(N)=O)c(NC(=O)C3CC3)n2)CCN(Cc2ccc(-c3csc(Cl)c3)nc2)CC1 noted as 8.62

Lab book: pKi of N#CCC1(n2cc(C(N)=O)c(NC(=O)C3CC3C#N)n2)CCN(Cc2ccc(-c3ccccc3)cc2F)CC1F (stereo not shown) [Example 219] noted as 8.44

Lab book: pKi of N#CCC1(n2cc(C(N)=O)c(NC(=O)C3CC3)n2)CCN(CCC(F)(F)F)CC1 noted as 6.95

----------
# measurementTarget: isolated recombinant JAK2 kinase domain (Homo sapiens (Human), UniProt O60674)
# assayExplanation: JAK2 enzyme assay (Caliper LabChip, Ki)
Binarize Ki at 9 nM; below is t, at or above is f.

Ki under 9 nM? Item: N#CCC1(n2cc(C(N)=O)c(NC(=O)C3CC3)n2)CCN(CC2CCC(c3ccccc3)CC2)CC1F (stereo not drawn) [Example 233] t

Ki under 9 nM? Item: CC1(Oc2ccc(C(F)(F)F)cc2)CN(C2CCC(CC#N)(n3cc(C(N)=O)c(NC(=O)C4CC4)n3)CC2)C1 (stereo not drawn) t

Ki under 9 nM? Item: N#CCC1(n2cc(C(N)=O)c(NC(=O)C3CC3)n2)CCN(Cc2ccc(-c3ccccc3)c(C#N)c2)CC1 f

Ki under 9 nM? Item: COC(=O)Nc1nn(C2(CC#N)CCN(Cc3ccc(-c4ccco4)nc3F)CC2F)cc1C(N)=O (stereo not drawn) t

Ki under 9 nM? Item: COc1ccccc1CN1CCC(CC#N)(n2cc(C(N)=O)c(NC(=O)C3CC3)n2)CC1 f

Ki under 9 nM? Item: N#CC[C@]1(n2cc(C(N)=O)c(NC(=O)C3CC3)n2)CCN(Cc2ccc(-c3ccccc3)cc2)C[C@H]1F (single isomer, unassigned) t

Ki under 9 nM? Item: CCc1ccc(-c2ccc(CN3CCC(CC#N)(n4cc(C(N)=O)c(NC(=O)C5CC5)n4)CC3)cc2)cc1 t

Ki under 9 nM? Item: COC1(C(F)(F)F)CN([C@H]2CC[C@](CC#N)(n3cc(C(N)=O)c(NC(=O)C4CC4)n3)CC2)C1 f

Ki under 9 nM? Item: N#CCC1(n2cc(C(N)=O)c(NC(=O)C3CC3)n2)CCN(Cc2ccc(-n3cnc4ccccc43)cc2)CC1 f

Ki under 9 nM? Item: N#CCC1(n2cc(C(N)=O)c(NC(=O)C3CC3)n2)CCN(Cc2ccc(-n3cccn3)cc2)CC1 f

Ki under 9 nM? Item: N#CCC1(n2cc(C(N)=O)c(NC(=O)C3CC3)n2)CCN(Cc2ccc(-n3nccn3)cc2)CC1F (stereo not drawn) t

Ki under 9 nM? Item: CCOP(=O)(OCC)c1ccc(Nc2nn([C@]3(CC#N)CC[C@@H](N4CC(C(F)(F)F)C4)CC3)cc2C(N)=O)cc1 t

Ki under 9 nM? Item: N#CCC1(n2cc(C(N)=O)c(NC(=O)C3CC3)n2)CCN(Cc2ccc(F)cc2)CC1 f

Ki under 9 nM? Item: N#CC[C@]1(n2cc(C(N)=O)c(NC(=O)C3CC3)n2)CC[C@@H](NC2CCC(F)(F)CC2)CC1 f

Ki under 9 nM? Item: N#CCC1(n2cc(C(N)=O)c(NC(=O)C3CC3)n2)CCN(Cc2ccc(-c3csc(Cl)c3)c(F)c2)CC1 t

Ki under 9 nM? Item: N#CCC1(n2cc(C(N)=O)c(NC(=O)C3CC3)n2)CCN(Cc2cc(O)c(-c3ccccc3)cc2F)CC1 t

Ki under 9 nM? Item: N#CCC1(n2cc(C(N)=O)c(NC(=O)C3CC3)n2)CCN(CC(F)(F)F)CC1 f

Ki under 9 nM? Item: N#CCC1(n2cc(C(N)=O)c(NC(=O)C3CC3)n2)CCN(Cc2ccc(-c3ccccc3)cc2)CC1 t

Ki under 9 nM? Item: N#CC[C@]1(n2cc(C(N)=O)c(NC(=O)C3CC3)n2)CC[C@H](NCC(F)(F)F)CC1 (single isomer, unassigned) t

Ki under 9 nM? Item: CNC(=O)Nc1cn(C2(CC#N)CCN(CC(F)(F)F)CC2)nc1C(N)=O f

Origin of values: patent US11731943B2
